Could you please report measured GI50 for the items listed next?
tested on: HCT-116; test: Antiproliferative activity against human HCT-116 cells assessed as inhibition of cell growth measured after 72 hrs by […]; format: functional
Answers are plain numbers, in µM.

Study these solved cases before continuing.
1) CNC(=O)/C=C/c1ccncc1-c1ccc2cc[nH]c2c1
10.3
2) COC(=O)/C=C/c1ccncc1-c1ccc2ccccc2c1
0.35
3) CNC(=O)/C=C/c1ccncc1-c1ccc2ccccc2c1
6.55
4) CCOC(=O)/C=C/c1ccncc1-c1ccc2cc[nH]c2c1
2.14
5) CN(C)C(=O)/C=C/c1ccncc1-c1ccc2ccccc2c1
4.54
6) CCOC(=O)/C=C/c1ccncc1-c1ccc2c(ccn2C)c1
0.21

For every item in the list below, what is its measured GI50?
1. O=C(/C=C/c1ccncc1-c1ccc2ccccc2c1)N1CCOCC1
2. CNC(=O)CCc1ccncc1-c1ccc2ccccc2c1
3. CNC(=O)c1cc(Oc2ccc(NC(=O)Nc3ccc(Cl)c(C(F)(F)F)c3)cc2)ccn1
4. CCOC(=O)/C=C/c1ccncc1-c1ccc2[nH]ccc2c1

Marked response:
1. 6.04
2. 19.3
3. 5.42
4. 4.83
